Biological target: human cannabinoid receptor type 1 (CB1) (human, UniProt P21554 1-472)
Sequence (P21554 whole entry): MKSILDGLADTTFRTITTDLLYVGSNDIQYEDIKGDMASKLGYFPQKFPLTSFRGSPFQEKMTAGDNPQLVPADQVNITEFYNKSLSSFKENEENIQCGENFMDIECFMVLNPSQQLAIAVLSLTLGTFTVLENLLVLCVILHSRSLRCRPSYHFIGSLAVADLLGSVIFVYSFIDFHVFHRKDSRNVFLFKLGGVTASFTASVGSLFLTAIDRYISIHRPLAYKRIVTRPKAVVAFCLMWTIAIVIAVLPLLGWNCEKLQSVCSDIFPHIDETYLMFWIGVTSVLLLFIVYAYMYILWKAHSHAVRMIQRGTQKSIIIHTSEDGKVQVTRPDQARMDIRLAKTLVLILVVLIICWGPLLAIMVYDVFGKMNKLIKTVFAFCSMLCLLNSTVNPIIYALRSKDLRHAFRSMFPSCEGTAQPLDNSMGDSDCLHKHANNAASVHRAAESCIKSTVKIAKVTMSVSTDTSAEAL
Assay: cell-based or functional assay
PROPERTY: P-ERK IC50 (nM) Data Set 2
The reply should contain only the number, in nM.

Field: example entries. Status: answers known.
BINDER: M8 mouse anti-huCB-1 antibody (antibody, V domains shown) VH: QVQLQQPGAELVKPGASVKLSCKASGYTFTDYWMHWVKQRPGHGLEWIGEIYPSSGRANYNGNFKRKATLTVDKSSSTAYMQLSSLTSEDSAVYYCARSRGNYLPYWGHGTPVTVSA VL: QIVLTQSPAIMSASLGERVTMTCTAGSTVSSSYLHWYQQRPGSSPKLWIYGTSNLASGVPARFSGSGSGTSYSLTISSMEAEDAATYYCHQYHRSPPTFGGGTKLEIK
PROPERTY: P-ERK IC50 (nM) Data Set 2
UNIT SYMBOL: nM
QUANTITATIVE RESULT: 47
//
BINDER: M4 mouse anti-huCB-1 antibody (antibody, V domains shown) VH: QVQLQQSGAELVRPGSSVKISCKASGYEFNYYWMNWVKQRPGQGLEWIGQIYPGDGDINYNGKFKGKATLTSDKSSSTVYMQLSSLTSEDSAVYFCSRSKGNPFAYWGQGTLVTVSA VL: DIQMTQTTSSLSASLGDSVTISCRASQGIRNYLNWYQQKPDGTVKLLIYYTSRLHSGVPPRFSGSGSGTDYSLTISNLEQEDLATYFCQQGNTLPYTFGGGTKLEIK
PROPERTY: P-ERK IC50 (nM) Data Set 2
UNIT SYMBOL: nM
QUANTITATIVE RESULT: 890
//
BINDER: M6 mouse anti-huCB-1 antibody (antibody, V domains shown) VH: EVQLQQSGPELVKPGASVKISCKASGYTFTDYNLHWVKHGKSLEWIGYIYPYDGDTGYKQKFKGKATLTADKSSSTAYMELRSLTCEDSAVYYCARGYGNSWGAYWGQGTLVTVSA VL: EIVLTQSPTTMAASPGEKITITCSATSSISSNYLHWYQQKPGFSPKLLIYRTSNLASGVPARFSGSGSGTSYSLTIGTMEAEDVATYYCQQGSSIPYTFGGGTKLEIK
PROPERTY: P-ERK IC50 (nM) Data Set 2
UNIT SYMBOL: nM
QUANTITATIVE RESULT: 300

[Q] What does the record list as P-ERK IC50 (nM) Data Set 2 for M3 mouse anti-huCB-1 antibody (antibody, V domains shown) VH: QVQLQQSGPELVRPGVSVKISCKGSGYEFTDYALHWVKQSHAETLEWIGLITTYYGDTNYNQKFKGKATMTVDKSSSTAYMELARLTSEDSAIYYCARGGYYYGTDYRYFDVWGAGTTVTVSS VL: DILLTQSPAILSVSPGERVSFSCRASQSIGTNIHWYQQRPNGSPRLLIKYASESISGIPSRFSGSGSGSDFTLSINSVESEDIADYYCQQSITWPLTFGAGTKLELK ?
[A] 534

The origin of these recorded values is patent US20220396620A1.
